- assay_info: In vivo pharmacokinetics in rat
- Design: species or system male Sprague-Dawley rats
- test_settings: male, Sprague-Dawley, rat, plasma; IV 2.32 mg/kg; mean of R1-R3; read-out: MRT0-last
readout_label: MRT last

[Q] What value of MRT last has been recorded for this entry: Cc1c(C(=O)Nc2ccc3c(c2)B(O)OC3)nnn1-c1ccccn1 [Compound 23]
[A] 2.21 h

* * *

- assay_info: Liver microsome stability, hamster
- Type: in vitro ADME
- test_settings: golden (Syrian), hamster liver microsomes, pH 7.4, Table 5, read-out: HamLM Clint
readout_label: microsomal CLint at 1 μM

[Q] What value of microsomal CLint at 1 μM has been recorded for this entry: Cc1c(C(=O)Nc2ccc3c(c2)B(O)OC3)nnn1-c1ccccn1 [Compound 23]
[A] < 11.9 µL/min/mg

* * *

- assay_info: In vivo pharmacokinetics in rat
- Design: species or system male Sprague-Dawley rats
- test_settings: male, Sprague-Dawley, rat, plasma; IV 2.32 mg/kg; mean of R1-R3
readout_label: AUC(0-inf) (ng·h/mL)
Answers are plain numbers, in ng·h/mL.

[Q] What value of AUC(0-inf) has been recorded for this entry: "Cc1c(C(=O)Nc2ccc3c(c2)B(O)OC3)nnn1-c1ccccn1"
[A] 9160

* * *

- assay_info: In vivo pharmacokinetics in dog
- Design: species or system male Beagle dogs
- test_settings: male, Beagle, plasma, PO 5 mg/kg, 3 h, mean
readout_label: concentration at 3 h (ng/mL)
One number for each entry, in ng/mL.

[Q] What value of concentration at 3 h has been recorded for this entry: Cc1c(C(=O)Nc2ccc3c(c2)B(O)OC3)nnn1-c1ccccn1 [Compound 23]
[A] 357

* * *

- Tested on: MDR1
- assay_info: in vitro
- Type: in vitro ADME
- test_settings: dog, MDCK-MDR1, pH 7.4
readout_label: Papp B→A at 150 min, 2 μM (×10⁻⁶ cm/s)
One number for each entry, in ×10⁻⁶ cm/s.

[Q] What value of Papp B→A at 150 min, 2 μM has been recorded for this entry: "Cc1c(C(=O)Nc2ccc3c(c2)B(O)OC3)nnn1-c1ccccn1"
[A] 11.6

* * *

- assay_info: In vivo pharmacokinetics in rat
- Design: species or system male Sprague-Dawley rats
- test_settings: male, Sprague-Dawley, rat, plasma; IV 2.32 mg/kg; mean of R1-R3; read-out: Cl
readout_label: clearance (mL/min/kg)
Answers are plain numbers, in mL/min/kg.

[Q] What value of clearance has been recorded for this entry: "Cc1c(C(=O)Nc2ccc3c(c2)B(O)OC3)nnn1-c1ccccn1"
[A] 4.5

* * *

- measured_on: CYP1A2 (Homo sapiens)
- Sequence (P05177 1-516): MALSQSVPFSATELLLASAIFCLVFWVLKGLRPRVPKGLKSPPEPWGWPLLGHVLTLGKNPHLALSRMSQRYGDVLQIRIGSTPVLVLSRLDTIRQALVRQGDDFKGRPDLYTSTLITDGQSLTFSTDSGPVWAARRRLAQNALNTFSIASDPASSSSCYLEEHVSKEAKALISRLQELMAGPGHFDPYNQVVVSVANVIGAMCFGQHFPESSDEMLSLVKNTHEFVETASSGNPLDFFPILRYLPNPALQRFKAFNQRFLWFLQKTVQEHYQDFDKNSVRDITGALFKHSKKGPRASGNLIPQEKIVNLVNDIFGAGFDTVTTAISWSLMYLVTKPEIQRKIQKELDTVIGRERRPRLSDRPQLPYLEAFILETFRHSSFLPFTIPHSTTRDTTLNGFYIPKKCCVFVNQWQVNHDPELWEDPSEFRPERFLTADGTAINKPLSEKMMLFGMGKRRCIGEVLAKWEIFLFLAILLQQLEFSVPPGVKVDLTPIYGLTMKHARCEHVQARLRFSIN
- assay_info: CYP inhibition, CYP1A2
- Format: in vitro ADME
- test_settings: human liver microsomes
pIC50: −log10 of the molar value.
readout_label: pIC50

[Q] Under CYP1A2 (Homo sapiens): pIC50 value of Cc1c(C(=O)Nc2ccc3c(c2)B(O)OC3)nnn1-c1ccccn1 [Compound 23] ?
[A] < 4.30

* * *

- assay_info: In vivo pharmacokinetics in rat
- Design: species or system male Sprague-Dawley rats
- test_settings: male, Sprague-Dawley, plasma, iv; rat; i.v. 2 mg/kg; read-out: clearance
readout_label: clearance (mL/min/kg)
Answers are plain numbers, in mL/min/kg.

[Q] What value of clearance has been recorded for this entry: Cc1c(C(=O)Nc2ccc3c(c2)B(O)OC3)nnn1-c1ccccn1 [Compound 23]
[A] 4.5

* * *

- assay_info: In vivo pharmacokinetics in dog
- Parameters: species or system male Beagle dogs
- test_settings: male, Beagle, plasma, PO 5 mg/kg, 9 h, mean
readout_label: concentration at 9 h (µg/mL)
Give bare numbers, in µg/mL.

[Q] What value of concentration at 9 h has been recorded for this entry: "Cc1c(C(=O)Nc2ccc3c(c2)B(O)OC3)nnn1-c1ccccn1"
[A] 0.0255

* * *

- assay_info: In vivo pharmacokinetics in rat
- Parameters: species or system male Sprague-Dawley rats
- test_settings: male, Sprague-Dawley, rat, plasma; PO 10.4 mg/kg; mean of R4-R6
readout_label: AUC(0-inf) (ng·h/mL)
Answers are plain numbers, in ng·h/mL.

[Q] What value of AUC(0-inf) has been recorded for this entry: "Cc1c(C(=O)Nc2ccc3c(c2)B(O)OC3)nnn1-c1ccccn1"
[A] 38600

* * *

- assay_info: In vivo pharmacokinetics in dog
- Parameters: species or system male Beagle dogs
- test_settings: male, Beagle, plasma, IV 1.0 mg/kg, mean, read-out: MRT0-inf
readout_label: MRT inf (h)
Numbers only, in h.

[Q] What value of MRT inf has been recorded for this entry: "Cc1c(C(=O)Nc2ccc3c(c2)B(O)OC3)nnn1-c1ccccn1"
[A] 1.66

* * *

- assay_info: In vivo pharmacokinetics in dog
- Parameters: species or system male Beagle dogs
- test_settings: male, Beagle, plasma, PO 5 mg/kg, 24 h, mean
readout_label: concentration at 24 h (ng/mL)
One number for each entry, in ng/mL.

[Q] What value of concentration at 24 h has been recorded for this entry: "Cc1c(C(=O)Nc2ccc3c(c2)B(O)OC3)nnn1-c1ccccn1"
[A] 0.9

* * *

- assay_info: In vivo pharmacokinetics in dog
- Design: species or system male Beagle dogs
- test_settings: male, Beagle, plasma, iv, i.v. 1 mg/kg
readout_label: half-life at 24 h (h)
Answers are plain numbers, in h.

[Q] What value of half-life at 24 h has been recorded for this entry: Cc1c(C(=O)Nc2ccc3c(c2)B(O)OC3)nnn1-c1ccccn1 [Compound 23]
[A] 1.5

* * *

- assay_info: In vivo pharmacokinetics in rat
- Design: species or system male Sprague-Dawley rats
- test_settings: male, Sprague-Dawley, rat, plasma; PO 10.4 mg/kg vs IV 2.32 mg/kg; mean; read-out: Bioavailability
readout_label: bioavailability (%)
Answers are plain numbers, in %.

[Q] What value of bioavailability has been recorded for this entry: "Cc1c(C(=O)Nc2ccc3c(c2)B(O)OC3)nnn1-c1ccccn1"
[A] 94

* * *

- assay_info: In vivo pharmacokinetics in rat
- Design: species or system male Sprague-Dawley rats
- test_settings: male, Sprague-Dawley, rat, plasma; IV 2.32 mg/kg; mean of R1-R3
readout_label: AUC(0-t) (ng·h/mL)
Give bare numbers, in ng·h/mL.

[Q] What value of AUC(0-t) has been recorded for this entry: "Cc1c(C(=O)Nc2ccc3c(c2)B(O)OC3)nnn1-c1ccccn1"
[A] 9140

* * *

- assay_info: In vivo pharmacokinetics in rat
- Design: species or system male Sprague-Dawley rats
- test_settings: male, Sprague-Dawley, rat, plasma; PO 10.4 mg/kg; mean of R4-R6
readout_label: half-life (min)
One number for each entry, in min.

[Q] What value of half-life has been recorded for this entry: "Cc1c(C(=O)Nc2ccc3c(c2)B(O)OC3)nnn1-c1ccccn1"
[A] 140

* * *

- assay_info: In vivo pharmacokinetics in dog
- Parameters: species or system male Beagle dogs
- test_settings: male, Beagle, plasma, IV 1.0 mg/kg, 1 h, mean
readout_label: concentration at 1 h (ng/mL)
Answers are plain numbers, in ng/mL.

[Q] What value of concentration at 1 h has been recorded for this entry: "Cc1c(C(=O)Nc2ccc3c(c2)B(O)OC3)nnn1-c1ccccn1"
[A] 373

* * *

- assay_info: In vivo pharmacokinetics in dog
- Design: species or system male Beagle dogs
- test_settings: male, Beagle, plasma, PO 5 mg/kg, mean
readout_label: half-life (h)
Answers are plain numbers, in h.

[Q] What value of half-life has been recorded for this entry: "Cc1c(C(=O)Nc2ccc3c(c2)B(O)OC3)nnn1-c1ccccn1"
[A] 1.46

* * *

- assay_info: In vivo pharmacokinetics in rat
- Set-up: species or system male Sprague-Dawley rats
- test_settings: male, Sprague-Dawley, rat, plasma; IV 2.32 mg/kg; mean of R1-R3; read-out: MRT0-inf
- Protocol: DNDI-6148 was formulated in 2% ethanol, 1 mol equiv NaOH, dextrose (5% solution), and administrated to male Sprague-Dawley rats, either i.v. after filtration and pH adjustment (at 2 mg/kg), or p.o. as a homogenous suspension (at 10 mg/kg). […] PK parameters were calculated using WinNonlin software (version 6.21 and 6.3).
readout_label: MRT inf (h)
Give bare numbers, in h.

[Q] What value of MRT inf has been recorded for this entry: "Cc1c(C(=O)Nc2ccc3c(c2)B(O)OC3)nnn1-c1ccccn1"
[A] 2.29
